assayed-target: BACE-2 (Homo sapiens)
Construct: Recombinant BACE-2 (extracellular domain, expressed in baculovirus and purified using standard methods)
Sequence (Q9Y5Z0 63-473 limits assumed): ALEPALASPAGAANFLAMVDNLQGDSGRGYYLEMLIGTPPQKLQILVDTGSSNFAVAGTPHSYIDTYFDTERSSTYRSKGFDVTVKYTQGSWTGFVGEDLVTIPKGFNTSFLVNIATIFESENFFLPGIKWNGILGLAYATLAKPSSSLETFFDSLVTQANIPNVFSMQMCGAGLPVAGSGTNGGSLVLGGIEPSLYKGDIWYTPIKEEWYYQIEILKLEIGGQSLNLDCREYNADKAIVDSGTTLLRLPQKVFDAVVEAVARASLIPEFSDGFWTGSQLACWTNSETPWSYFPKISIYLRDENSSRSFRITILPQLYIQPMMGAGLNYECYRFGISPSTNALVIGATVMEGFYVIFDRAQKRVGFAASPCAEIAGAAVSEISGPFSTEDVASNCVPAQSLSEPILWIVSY
assay-remarks: assay for inhibition of BACE-2
Structures can show the parent of a compound that is named as a salt.
Lab note: cut-off is 30 nM. Strictly less in IC50 is rule met. Exactly 30 nM or more is rule not met.

- compound: "NC1=N[C@@](c2cc(NC(=O)c3ccc4c(Cl)c[nH]c4n3)ccc2F)(C(F)F)COC1 [Example 219]"
  assayed-target: "BACE-2 (Homo sapiens)"
  qualitative-label: "rule not met"
- compound: "NC1=N[C@@](c2cc(NC(=O)c3ccc(Br)cn3)ccc2F)(C(F)F)COC1 [Example 118]"
  assayed-target: "BACE-2 (Homo sapiens)"
  qualitative-label: "rule met"
- compound: "Cc1nc(C(=O)Nc2cccc(C3(C(F)F)COCC(N)=N3)c2)co1 (stereo not shown) [Example 104]"
  assayed-target: "BACE-2 (Homo sapiens)"
  qualitative-label: "rule not met"
- compound: "Cc1nc(C(=O)Nc2cccc(C3(C)COCC(N)=N3)c2)co1 (stereo not shown) [Example 5, hydrochloride]"
  assayed-target: "BACE-2 (Homo sapiens)"
  qualitative-label: "rule not met"
- compound: "Cl.[2H]C([2H])([2H])Oc1cnc(C(=O)Nc2ccc(F)c([C@]3(C)CO[C@@](C)(C(F)(F)F)C(N)=N3)c2)c(Cl)c1 [Example 236]"
  assayed-target: "BACE-2 (Homo sapiens)"
  qualitative-label: "rule met"
- compound: "Cc1cc(Cl)cnc1C(=O)Nc1cccc(C2(C(F)F)COCC(N)=N2)c1 (stereo not shown) [Example 41]"
  assayed-target: "BACE-2 (Homo sapiens)"
  qualitative-label: "rule met"
- compound: "COc1ccc(C(=O)Nc2cccc([C@]3(C)CO[C@@](C)(C(F)(F)F)C(N)=N3)c2)nc1 [Example 67]"
  assayed-target: "BACE-2 (Homo sapiens)"
  qualitative-label: "rule met"
